Source of measurements: patent US20020182635A1

Biological target: NUDT9 (Homo sapiens)
Construct: made in house; host or cells: E. coli BL21 (DE3), pET-24d
Sequence (Q9BW91 47-350): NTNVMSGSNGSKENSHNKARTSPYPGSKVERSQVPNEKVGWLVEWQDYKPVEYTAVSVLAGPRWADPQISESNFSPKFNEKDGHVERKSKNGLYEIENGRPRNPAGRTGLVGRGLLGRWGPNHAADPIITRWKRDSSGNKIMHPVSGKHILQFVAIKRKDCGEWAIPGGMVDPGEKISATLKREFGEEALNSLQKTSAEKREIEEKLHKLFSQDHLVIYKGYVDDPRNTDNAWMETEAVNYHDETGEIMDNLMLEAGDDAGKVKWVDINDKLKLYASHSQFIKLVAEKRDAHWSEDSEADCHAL
Assay: Nudix-type hydrolase activity towards a panel of substrates, NUDT9
Format: biochemical
Settings: purified bacterially expressed NUDT9

{"columns": ["compound", "hydrolysis as substrate by NUDT9"],
 "data": [
  ["Nc1ccn([C@H]2C[C@H](O)[C@@H](COP(=O)(O)OP(=O)(O)OP(=O)(O)O)O2)c(=O)n1 [deoxy-CTP]", "not hydrolyzed"],
  ["Cc1cn([C@H]2C[C@H](O)[C@@H](COP(=O)(O)OP(=O)(O)OP(=O)(O)O)O2)c(=O)[nH]c1=O [deoxy-TTP]", "not hydrolyzed"],
  ["NC(=O)c1ccc[n+]([C@@H]2O[C@H](COP(=O)([O-])OP(=O)(O)OC[C@H]3O[C@@H](n4cnc5c(N)ncnc54)[C@H](O)[C@@H]3O)[C@@H](O)[C@H]2O)c1 [NAD^+, nicotinamide adenine dinucleotide]", "not hydrolyzed"],
  ["Nc1ncnc2c1ncn2[C@@H]1O[C@H](COP(=O)(O)OP(=O)(O)O[C@H]2O[C@H](CO)[C@@H](O)[C@H](O)[C@H]2O)[C@@H](O)[C@H]1O [ADP-lucose]", "not hydrolyzed"]
]}
